Tested on: wtTel26 (DNA, G4) TTAGGGTTAGGGTTAGGGTTAGGGTT
PROTOCOL_SUMMARY: fluorescence titration
SETUP_CONDITIONS: 100 mM K+; 25 °C, pH 7; 0.2 μM ligand titrated with DNA
Provide the recorded Kd for the entries that follow.
Numbers only, in nM.

Reference set (3 entries):
Record COc1cc2c(cc1OC)-c1cc3ccc(OC)c(OC)c3c[n+]1CC2 , field Kd: 740

The compound listed as c1c2c(cc3c1OCO3)-c1cc3ccc4c(c3c[n+]1CC2)OCO4 has a reported Kd of 333

Lab book: Kd of COc1ccc2cc3[n+](cc2c1OC)CCc1cc2c(cc1-3)OCO2 noted as 1994

Further cases:
Notebook: COc1cc2c(cc1OC)-c1cc3ccc4c(c3c[n+]1CC2)OCO4 , Kd read as 16
